Biological target: T1, human ILT6 (LILRA3) on CHO cells (human, UniProt Q8N6C8 24-434)
T1 construct: also called CHO ILT6 cell line; human ILT-6 polypeptide
T1 sequence (Q8N6C8 other isoform, or with tags, fused parts or gaps): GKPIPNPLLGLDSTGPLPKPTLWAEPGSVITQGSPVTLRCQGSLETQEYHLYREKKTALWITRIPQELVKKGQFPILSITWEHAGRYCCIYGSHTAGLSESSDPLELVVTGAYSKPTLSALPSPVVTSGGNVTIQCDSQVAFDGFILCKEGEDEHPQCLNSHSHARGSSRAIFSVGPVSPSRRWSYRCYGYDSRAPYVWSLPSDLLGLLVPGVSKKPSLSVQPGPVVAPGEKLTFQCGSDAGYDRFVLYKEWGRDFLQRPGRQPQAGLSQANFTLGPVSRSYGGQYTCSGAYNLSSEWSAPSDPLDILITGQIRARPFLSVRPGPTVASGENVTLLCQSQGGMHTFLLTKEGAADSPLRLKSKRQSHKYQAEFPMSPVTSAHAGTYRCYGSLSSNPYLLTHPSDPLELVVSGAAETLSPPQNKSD
Assay: flow cytometry, CHO transfectants

Binder | binding result
48F12 (antibody, human IgG1, V domains shown) VH: QVQLKESGPGLVAPSQSLSITCTVSGFSLTSYGVSWVRQPPGKGLEWLGIIWGDGSTNYHSALVSRLSISKDNSKSQVFLKLNSLQTDDTATYYCAKPNWDYYAMDYWGQGTSVTVSS VL: DIQMTQTTSSLSASLGDRVTISCRASQDISNYLNWYQQKVDGTVKLLISYTSRLHSGVPSRFSGSGSGTDYSLTISNLEQEDIATYFCQQGITLPLTFGAGTKLELK | no binding
2E11 (antibody, human IgG1, V domains shown) VH: QVQLKESGPELVKPGASVKISCKTSGYSFTNYYIHWVKQRPGQGLEWIGWIFPGSGDTNYNEKFKGKATLTADTSSNTASMHLSSLTSEDSAVYFCARTWNYDARWGYWGQGTTLTVSS VL: DIVMTQSPASLAVSLGQRATISCRVSESIDSYGISFMHWYQQKSGQPPKVLIYRASTLESGIPARFSGSGSRTDFTLTINPVEADDVATYYCQQSNEDPFTFGSGTKLEIK | no binding

The reported numbers originate from patent US20220025056A1.
